# Test system: PA-1
# assay-comment: Primary qHTS to identify gynecologic anti-cancer compounds using libraries of approved drugs and bioactive compounds (AID 1345084); note: nearly all actives have a fitted effect of over 55% in size
# assay-setup: Gynecologic cancer cell panel viability, ATPlite luminescence, 48 h; series mostly up to 57.5 µM
Inconclusive results are not listed. Active and inactive are the calls of the source. Calls come from the whole dose curve; as a rule, active = well fitted cell-killing curve with a large enough effect; inconclusive = small, poorly fitted or top-dose-only effect, or effect the other way; inactive = flat fitted curve, though single readings scatter.
Return exactly one item of true (1) = active, false (0) = inactive

Reference set (2 entries):
{"columns": ["compound", "class"],
 "data": [
  ["COc1nc(C)cnc1NS(=O)(=O)c1cccnc1-c1ccc(-c2nnco2)cc1", "false (0)"],
  ["Nc1ncnc2c1c(-c1cccc(OCc3ccccc3)c1)cn2C1CC(CN2CCC2)C1 (stereo unspecified)", "true (1)"]
]}

Query :: In this assay, the call recorded for "c1ccc(-c2oc3ncnc(NC[C@@H]4CCCO4)c3c2-c2ccccc2)cc1" was what?
Result :: false (0)

Query :: In this assay, the call recorded for "Cc1cccc2c1CC[C@H](CN1CCC(c3c(Cl)cccc3Cl)CC1)C[C@@H]2O" was what?
Result :: true (1)

Query :: In this assay, the call recorded for "O=C1C(c2c(O)[nH]c3ccccc23)=Nc2ccccc21" was what?
Result :: false (0)

Query :: In this assay, the call recorded for "CCNC(=O)c1noc(-c2cc(C(C)C)c(O)cc2O)c1-c1ccc(CN2CCOCC2)cc1" was what?
Result :: true (1)

Query :: In this assay, the call recorded for "O=S(=O)(O)c1ccc2cc(N=Nc3cc(S(=O)(=O)O)c4cccnc4c3O)ccc2c1" was what?
Result :: false (0)

Query :: In this assay, the call recorded for "CCN1C[C@H](C)n2c(c(O)c3c(=O)n(Cc4ccc(F)c(Cl)c4)nc(C(=O)NC)c32)C1=O" was what?
Result :: false (0)

Query :: In this assay, the call recorded for "CNc1nc(Nc2ccc(C(=O)N3CCOCC3)cc2OC)ncc1Cl" was what?
Result :: false (0)

Query :: In this assay, the call recorded for "C[C@@]1(C(=O)Nc2ccc(F)nc2)CCCN1c1nc(Nc2cc(C3CC3)[nH]n2)c2cccn2n1" was what?
Result :: true (1)

Query :: In this assay, the call recorded for "COC(=O)N1CCN(Cc2cccc(NC(=O)Nc3ccc(C)nc3)c2F)CC1" was what?
Result :: false (0)

Query :: In this assay, the call recorded for "CNC(=O)c1cc(Oc2ccc(NC(=O)Nc3ccc(Cl)c(C(F)(F)F)c3)c(F)c2)ccn1" was what?
Result :: false (0)

Query :: In this assay, the call recorded for "O=C(Nc1cccc(C(F)(F)F)c1)Nc1cc(S(=O)(=O)NC2CC2)ccc1-c1ccsc1" was what?
Result :: false (0)

Query :: In this assay, the call recorded for "O=C(CO)N1CCC(c2[nH]nc(-c3ccc(Cl)cc3)c2-c2ccncn2)CC1" was what?
Result :: false (0)

Query :: In this assay, the call recorded for "Nc1[nH]nc2nnc(-c3c(-c4ccccc4)nn4ccccc34)cc12" was what?
Result :: false (0)

* * *

# assay-comment: Quantitative High-Throughput drug screen in 47 multiple myeloma cell lines against the NCATS MIPE library collection: KMS11_JCRBsus cell viability assay (AID 1919873); note: nearly all actives have a fitted effect of over 50% in size
# assay-setup: KMS11 myeloma viability, CellTiter-Glo ATP luminescence, 48 h; series mostly up to 45.8 µM
Records with an inconclusive call do not appear. Active and inactive are the calls of the source. Calls come from the whole dose curve; as a rule, active = well fitted cell-killing curve with a large enough effect; inconclusive = small, poorly fitted or top-dose-only effect, or effect the other way; inactive = no such curve, though single readings can be large or run the other way.
Return exactly one item of TRUE for active, FALSE for inactive

{"columns": ["compound", "class"],
 "data": [
  ["Nc1ncnc2c1ncn2[C@@H]1O[C@H](CO)[C@@H](O)[C@@H]1O", "TRUE"],
  ["CN(C)N=Nc1nc[nH]c1C(N)=O", "FALSE"]
]}

Query :: In this assay, the call recorded for "N#CC(=C1Nc2ccccc2S1)c1ccnc(OCc2ccc(CN3CCOCC3)cc2)n1" was what?
Result :: TRUE

Query :: In this assay, the call recorded for "Nc1ccn([C@@H]2O[C@H](CO)[C@@H](O)[C@H]2O)c(=O)n1" was what?
Result :: FALSE

Query :: In this assay, the call recorded for CC1CNc2c(cccc2S(=O)(=O)N[C@@H](CCCN=C(N)N)C(=O)N2CC[C@@H](C)C[C@@H]2C(=O)O)C1 (stereo not given in full) was what?
Result :: FALSE
